System: SK-MEL-5 melanoma
assayRemarks: NCI tumour cell line growth inhibition, 48 h
Consider the following compounds and their measured log10 TGI readings.
Scale: decimal log of TGI, TGI in µM.

Consider the worked cases shown below.
COc1cc2c(/C=C3\C(=O)Nc4ccccc43)c[nH]c2cc1C ... 0.28
CC(C)CCCC(C)[C@H]1CCC(C2C[C@@H](O)[C@@H]3CC(O)[C@@H](O)C[C@]3(CO)C2=O)[C@]1(C)CCO (stereo partly specified) ... 1.27
N#Cc1c(NC(=S)Nc2ccc(Cl)cc2)sc2c1CCN(N1CCc3c(sc(NC(=S)Nc4ccc(Cl)cc4)c3C#N)C1)C2 ... 1.35
CCOc1ccc2nc(NC(=O)C(=O)C(C(=O)c3ccccc3F)C3OC(=O)c4ccccc43)sc2c1 (stereo unspecified) ... 1.53
Clc1ccc2c(NCCCCCCNc3ccnc4cc(Cl)ccc34)ccnc2c1 ... 1.04

Query (compound): CCN(CC)C(=S)SC(C(=O)Nc1nnc(-c2ccc(Cl)cc2)o1)c1ccccc1 (stereo unspecified) ; field requested: log10 TGI
1.29

Query (compound): N#Cc1c(-c2ccc([N+](=O)[O-])cc2)c(C#N)c(=O)n(NS(=O)(=O)c2ccccc2)c1S ; field requested: log10 TGI
1.48

----------
Tested on: A498 renal
assayRemarks: NCI tumour cell line growth inhibition, 48 h
reportedMetric: TGI

Consider the worked cases shown below.
N[C@@H](CCC(=O)NC(Cc1ccccc1)C(=O)NCP(=O)(O)O)C(=O)O (some centres undefined) ... > 100 µM
Oc1ccc(Cl)cc1C=Nc1cnc2ccccc2c1 ... > 100 µM
COc1ccc(-c2ccc(C(=O)C=P(c3ccccc3)(c3ccccc3)c3ccccc3)cc2)cc1 ... 31.9 µM

Query (molecule): Cn1c(COC(=O)NCCn2ccnc2)nc2c(N3CCOCC3)nc(-c3ccccc3)nc21 ; field requested: TGI
2.53 µM

Query (molecule): COc1ccc(-c2ccc(C3CC(c4ccccc4)=NN3)o2)c([N+](=O)[O-])c1 (centres undefined) ; field requested: TGI
> 100 µM

----------
Test system: SK-MEL-5 melanoma
assayRemarks: NCI tumour cell line growth inhibition, 48 h
reportedMetric: TGI

Consider the worked cases shown below.
COc1ccc(N2C(=O)C3c4[nH]c5c(C)cccc5c4C4CCC(C(C)C)CC4C3C2=O)cc1 (centres undefined) ... > 100 µM
CN1CCN(C2=NC(=O)/C(=C\c3ccc(N(C)C)cc3)S2)CC1 ... > 100 µM
CC(C)Cc1cnc(CC(C)C)c(=O)[nH]1 ... > 100 µM
COc1c2ccoc2nc2c(OC)c(OCC(O)C(C)(C)O)ccc12 (centres undefined) ... > 100 µM
COC1/C=C/C(C)C(O)CC(O)/C=C/C(C)C(C(C)C(OC)C(C)CCC(=O)C(C)C(C/C=C/N(C)C=O)OC)OC(=O)/C=C/C=C(\C)CC(OC)CC2=CC(=O)O[C@@H](C(C)C(OC)C1)[C@H]2O (some centres undefined) ... < 0.005 µM
ClC1=NN=C(c2c[nH]c3ccccc23)CC1NCc1ccccc1 (centres undefined) ... > 100 µM
COC(=O)c1sc(=O)sc1SCc1cccc(CSc2sc(=O)sc2C(=O)OC)c1 ... > 100 µM
O=CCCCCCOCc1ccccc1 ... > 54.4 µM

Alright, here's another compound for you.
Tell me reported TGI for Cc1cc(=O)[nH]c(NNC(C#N)c2cccc([N+](=O)[O-])c2)n1 (centres undefined) , tested with SK-MEL-5 melanoma.
> 100 µM
